- tgt: T1, recombinant Cad-11 EC1 human IgG1 fusion protein (R&D Systems Cat. No. 1790-CA-050) (human, UniProt P55287 54-617, limits assumed)
- T1 construct: Bought protein; the catalogue product may hold more of the extracellular region; also called recombinant human Cad-11 EC1; recombinant human Cad-11 fusion protein; not shown: human IgG1 part of the bought fusion protein
- T1 sequence: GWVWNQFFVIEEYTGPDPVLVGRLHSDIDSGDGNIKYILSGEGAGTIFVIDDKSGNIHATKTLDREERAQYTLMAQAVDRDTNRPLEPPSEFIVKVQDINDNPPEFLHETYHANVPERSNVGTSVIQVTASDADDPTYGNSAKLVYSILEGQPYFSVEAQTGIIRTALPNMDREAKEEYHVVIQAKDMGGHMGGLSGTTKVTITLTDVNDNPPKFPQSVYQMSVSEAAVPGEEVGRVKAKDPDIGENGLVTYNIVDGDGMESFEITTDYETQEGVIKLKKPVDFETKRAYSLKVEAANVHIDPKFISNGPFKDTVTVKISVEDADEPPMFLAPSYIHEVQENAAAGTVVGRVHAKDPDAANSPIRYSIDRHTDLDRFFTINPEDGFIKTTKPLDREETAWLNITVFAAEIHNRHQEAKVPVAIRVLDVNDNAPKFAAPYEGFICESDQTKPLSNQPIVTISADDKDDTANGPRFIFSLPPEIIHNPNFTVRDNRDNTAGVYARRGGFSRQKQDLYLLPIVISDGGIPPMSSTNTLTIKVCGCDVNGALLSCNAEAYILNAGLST
- protocol_notes: competition ELISA on coated recombinant human Cad-11 EC1 fusion protein; competitor biotinylated SYN0012 at 0.1 µg/ml, streptavidin-HRP, OD450
value_kind: IC50 (read off the curve)

Problem: Retrieve IC50 (read off the curve) measured for murine H1M1 monoclonal anti-Cad-11 EC1 antibody (hybridoma H1M1, ATCC PTA-9699) (antibody, V domains shown, Biotinylated when used as the labelled competitor in Example 14; the letters are unchanged., murine antibody raised against Peptide 4; also called SYN0012; SYN0012/H1M1) VH: EVQLQQSGPELVKPGASVKISCKASGYSFTGYFMNWVKQSHGKSLEWIGRINPYTGDTFYNQKFKGKATLTVDKSSSTAHMELLSLSSEDSAVYYCGRLGSRYWYFDVWGAGTTVTVSS VL: DVLMTQTPLSLPVSLGDQASISCRSSQSIIHSNGNTYLEWYLQKPGQSPKLLIYKVSNRFSGVPDRFTGSGSGTDFTLKISRVEAEDLGVYYCFQGSHVPWTFGGGTKLEIK and print it.
Solution: ~0.2 µg/mL

Problem: Retrieve IC50 (read off the curve) measured for humanized anti-Cad-11 antibody SDP021 (Vκ1/VH2) (antibody, IgG4, V domains shown, humanized IgG4 (S241P), kappa) VH: EVQLVQSGAEVKKPGASVKISCKASGYSFTGYFMNWVKQAPGQGLEWIGRINPYTGDTFYNQKFKGRATLTVDKSTSTAYMELSSLRSEDTAVYYCGRLGSRYWYFDVWGQGTTVTVSS VL: DVLMTQTPLSSPVTLGQPASISCRSSQSIIHSNGNTYLEWYLQKPGQSPQLLIYKVSNRFSGVPDRFTGSGSGTDFTLKISRVEAEDVGVYYCFQGSHVPWTFGQGTKLEIK and print it.
Solution: ~0.1 µg/mL

Problem: Retrieve IC50 (read off the curve) measured for humanized anti-Cad-11 antibody SDP041 (Vκ1/VH4) (antibody, IgG4, V domains shown, humanized IgG4 (S241P), kappa) VH: EVQLVQSGAEVKKPGASVKVSCKASGYSFTGYFMNWVRQAPGQGLEWIGRINPYTGDTFYNQKFKGRATITVDKSTSTAYMELSSLRSEDTAVYYCGRLGSRYWYFDVWGQGTTVTVSS VL: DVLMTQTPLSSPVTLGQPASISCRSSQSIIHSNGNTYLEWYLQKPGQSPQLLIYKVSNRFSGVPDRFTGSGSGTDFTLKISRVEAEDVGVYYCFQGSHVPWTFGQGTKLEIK and print it.
Solution: ~0.1 µg/mL

Problem: Retrieve IC50 (read off the curve) measured for humanized anti-Cad-11 antibody SDP031 (Vκ1/VH3) (antibody, IgG4, V domains shown, humanized IgG4 (S241P), kappa) VH: EVQLVQSGAEVKKPGASVKISCKASGYSFTGYFMNWVRQAPGQGLEWIGRINPYTGDTFYNQKFKGRATLTVDKSTSTAYMELSSLRSEDTAVYYCGRLGSRYWYFDVWGQGTTVTVSS VL: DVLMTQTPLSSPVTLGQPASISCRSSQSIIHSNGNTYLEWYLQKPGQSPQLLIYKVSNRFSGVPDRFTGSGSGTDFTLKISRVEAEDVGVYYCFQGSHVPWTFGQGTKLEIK and print it.
Solution: ~0.2 µg/mL

Problem: Retrieve IC50 (read off the curve) measured for humanized anti-Cad-11 antibody SDP011 (Vκ1/VH1) (antibody, IgG4, V domains shown, humanized IgG4 (S241P), kappa) VH: EVQLVQSGPELKKPGASVKISCKASGYSFTGYFMNWVKQAHGQGLEWIGRINPYTGDTFYNQKFKGRATLTVDKSSSTAYMELVSLSSEDSAVYYCGRLGSRYWYFDVWGQGTTVTVSS VL: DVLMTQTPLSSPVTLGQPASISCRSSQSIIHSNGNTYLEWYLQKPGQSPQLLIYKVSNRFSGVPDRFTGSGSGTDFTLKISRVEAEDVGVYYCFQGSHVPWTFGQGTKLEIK and print it.
Solution: ~0.2 µg/mL

Problem: Retrieve IC50 (read off the curve) measured for humanized anti-Cad-11 EC1 antibody SDP051 (Vκ1/VH5) (antibody, IgG4, V domains shown, humanized IgG4 (S241P), kappa) VH: EVQLVQSGAEVKKPGASVKVSCKASGYSFTGYFMNWVRQAPGQGLEWIGRINPYTGDTFYNQKFKGRVTITVDKSTSTAYMELSSLRSEDTAVYYCGRLGSRYWYFDVWGQGTTVTVSS VL: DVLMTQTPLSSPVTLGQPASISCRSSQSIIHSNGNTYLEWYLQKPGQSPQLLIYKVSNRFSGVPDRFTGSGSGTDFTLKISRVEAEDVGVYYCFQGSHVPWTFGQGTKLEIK and print it.
Solution: ~0.2 µg/mL
